Target sequence: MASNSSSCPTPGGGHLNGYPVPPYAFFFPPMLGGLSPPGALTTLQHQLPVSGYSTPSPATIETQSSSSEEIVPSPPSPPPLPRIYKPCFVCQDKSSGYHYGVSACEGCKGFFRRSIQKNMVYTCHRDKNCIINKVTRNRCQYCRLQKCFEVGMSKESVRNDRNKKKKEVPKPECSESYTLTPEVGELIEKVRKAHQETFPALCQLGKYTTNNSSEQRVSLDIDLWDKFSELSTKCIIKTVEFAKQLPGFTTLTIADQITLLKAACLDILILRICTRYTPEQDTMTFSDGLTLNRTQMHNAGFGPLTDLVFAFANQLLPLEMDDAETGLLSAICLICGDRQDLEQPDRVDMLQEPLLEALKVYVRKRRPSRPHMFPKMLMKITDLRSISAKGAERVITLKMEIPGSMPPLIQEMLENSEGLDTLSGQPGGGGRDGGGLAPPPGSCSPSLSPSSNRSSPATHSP
pKd: −log10 of the molar value.
Readout: pKd

Compound | Numeric Readout
C=C(c1ccccc1)c1cc(/C(C)=C/C=C/C(C)=C/C(=O)O)cc(C(C)(C)C)c1 [Compound 17] | 8.70
COc1c(C(C)(C)C)cc(/C(C)=C/C=C/C(C)=C/C(=O)O)cc1C(C)(C)C [A, reference compound] | 9.00
